# Test system: HT29 colon
# Assay explanation: NCI-60 one-dose screen, 48 h
# Condition label: 10 µM
About 83,000 compounds went through this panel and 20% of them were active in at least one assay; those are over-represented in the sample as a whole. Active and inactive are the calls of the source. Rule for the calls: active = growth percent below 10; inactive = the rest.
Possible outcomes: y (active), n (inactive)

>>> print(df.to_string())
                                    compound  group
 0              COc1ccccc1N1CCCSC1=Nc1ccccc1      n
 1  CC(=O)OC1C=CC(OC(C)=O)O1 (stereo unspecified)      n
 2  O=C(CCc1nnc2sc(-c3cc(O)c(O)c(O)c3)nn12)c1nc2ccccc2[nH]1      n
 3    COc1ccccc1/C=N\N/C(N)=N\N=C\c1ccccc1OC      y
 4   O=C(CCl)Nc1ccc(Cc2ccc(NC(=O)CCl)cc2)cc1      y
 5  COc1ccc(/C=C/C(=O)C(=O)/C=C/c2ccc(OC)c(OC)c2)cc1OC      y
 6  NS(=O)(=O)Oc1ccc2c(ccn2C(=O)C23CC4CC(CC(C4)C2)C3)c1      n
 7  OCC1OC(n2ccc3c(NO)ncnc32)C(O)C1O (stereo unspecified)      y
 8  CCOC(=O)c1cc(C(=O)c2ccc(OC)c(OC)c2)n2c1ccc1ccc3cccnc3c12      y
 9  Nc1ccc(-c2cccs2)cc1NC(=O)c1ccc(CCCC(=O)Nc2ccc(C3CC3N)cc2)cc1 (stereo unspecified)      n
10  COC1OC(COS(=O)OC)C(O)C(O)C1OS(=O)OC (stereo unspecified)      n
